Hey, just so you know, these numbers are from the supplement of paper PMC12669032.

System: Fusobacterium nucleatum subsp. animalis
Assay: growth AUC relative to DMSO control (median of replicates) (fraction); higher = more growth (less inhibition), active = hit call of the paper
Conditions: 20 µM; 24 h
metric: growth AUC
Answer as a number with no unit attached.

Please review the entries below; each comes with its answer.
{"compound": "CCCN(CCOc1c(Cl)cc(Cl)cc1Cl)C(=O)n1ccnc1", "subject-of-test": "Fusobacterium nucleatum subsp. animalis", "recorded-number": 1}
{"compound": "CCOP(=S)(OCC)SCS(=O)(=O)C(C)(C)C", "subject-of-test": "Fusobacterium nucleatum subsp. animalis", "recorded-number": 0.964}
{"compound": "Cc1[nH]c(=O)n(C(C)(C)C)c(=O)c1Cl", "subject-of-test": "Fusobacterium nucleatum subsp. animalis", "recorded-number": 0.978}
{"compound": "COP(=O)(NC(C)=O)SC (stereo not drawn)", "subject-of-test": "Fusobacterium nucleatum subsp. animalis", "recorded-number": 0.99}
{"compound": "COP(=S)(OC)Oc1nc(Cl)c(Cl)cc1Cl", "subject-of-test": "Fusobacterium nucleatum subsp. animalis", "recorded-number": 0.94}
{"compound": "CCOCN(C(=O)CCl)c1c(C)cccc1CC", "subject-of-test": "Fusobacterium nucleatum subsp. animalis", "recorded-number": 1.04}
{"compound": "O=P(O)(O)CCCl", "subject-of-test": "Fusobacterium nucleatum subsp. animalis", "recorded-number": 1.04}
{"compound": "Nc1ncn[nH]1", "subject-of-test": "Fusobacterium nucleatum subsp. animalis", "recorded-number": 1.1}

Ask | Look up and state reported growth AUC for `COS(=O)(=O)[O-].Cn1c(-c2ccccc2)cc(-c2ccccc2)[n+]1C`
Reply | 0.985

Ask | Look up and state reported growth AUC for `Clc1cccc(Cl)c1Cl`
Reply | 1

Ask | Look up and state reported growth AUC for `CC1=C(C(=O)Nc2ccccc2)SCCO1`
Reply | 1.09

Ask | Look up and state reported growth AUC for `CCOP(=S)(OCC)SCCS(=O)(=O)CC`
Reply | 1

Ask | Look up and state reported growth AUC for OC(Cn1cncn1)(c1ccc(F)cc1)c1ccccc1F (stereo not drawn)
Reply | 1.02
